All values here come from patent US20130085133A1.

Assay Summary: cytotoxicity assay (percent viability of HEp-2 cells, Cell Titer-Glo)
Condition: human, HEp-2 cells
Provide the recorded CC50 at 6 days for the entries that follow.

* CCOC(=O)Cc1ccc(NC(=O)c2cc(SC)ccc2Cl)cc1 | > 25 µg/mL

The following molecules each have a reported value; give each one's CC50 at 6 days.
1. O=c1c2c3c(sc2ncn1CCO)CCCC3
2. Cc1ccc(O)c(C(=O)c2cc(C(=O)Nc3ccccc3C)c(=O)n(-c3ccccc3C)c2)c1
3. CCCCC(=O)Nc1cccc(NC(=O)c2ccc(OCC)c([N+](=O)[O-])c2)c1
4. CCOC(=O)C1=C(c2ccccc2)NC(=S)NC1c1ccccc1OCC(=O)Nc1ccccc1 (stereo not drawn)
5. CC(C)=CCC1=C(O)C(=O)c2ccccc2C1=O

["> 25 µg/mL", "> 50 µM", "> 25 µg/mL", "> 25 µg/mL", "> 50 µM"]

The following molecules each have a reported value; give each one's CC50 at 6 days.
1. CCn1c(=O)n(CC)c2cc(NC(=O)c3ccccc3Cl)c(Br)cc21
2. O=C(COC(=O)c1c2c(nc3ccccc13)/C(=C/c1cccs1)CC2)NCC(F)(F)F
3. c1ccc(-c2cc3c(N4CCN(c5ccccc5)CC4)ncnc3s2)cc1
4. CC(=O)Nc1ccc(C(=O)OCc2ccc(C(C)=O)cc2)cc1
5. O=C1c2ccccc2C(=O)N1CCCCN(C(=O)c1ccco1)c1ccc(Cl)cc1
6. COc1ccccc1C(=O)N(CCCCN1C(=O)c2ccccc2C1=O)c1ccc(Cl)cc1

> 25 µg/mL
> 50 µM
> 25 µg/mL
> 25 µg/mL
> 25 µg/mL
> 25 µg/mL

The following molecules each have a reported value; give each one's CC50 at 6 days.
1. CCOC(=O)C1=C(C)NC(C)=C(C(=O)OCC)C1C(=O)OCC(=O)Nc1c(Cl)cccc1Cl
2. COc1ccc(C(=O)Nc2ccc3c(c2)OCCO3)c(OC)c1
3. CCn1c(COc2ccccc2OC)nc2ccccc21
4. CCN(c1ccccc1)S(=O)(=O)c1cccc(C(=O)Nc2nccs2)c1
5. Cc1ccc(-c2nc3cc(N)ccc3o2)cc1Br
6. COC(=O)c1c(-c2ccccc2)csc1NC(=O)c1ccccc1Cl

> 50 µM
> 25 µg/mL
> 25 µg/mL
> 50 µM
> 25 µg/mL
> 25 µg/mL

The following molecules each have a reported value; give each one's CC50 at 6 days.
1. Cc1nc(N)sc1-c1csc(Nc2ccccn2)n1
2. O=C(NCCSCc1c(F)cccc1Cl)c1cccc([N+](=O)[O-])c1
3. CC(=O)Nc1ccc(S(=O)(=O)N(C)CC(=O)Nc2ccccc2Oc2ccccc2)cc1
4. O=S1(=O)N=C(Nc2ccc3c4c(cccc24)CC3)c2ccccc21
5. Cc1ccc2c(Cn3cnc4scc(-c5ccc(F)cc5)c4c3=O)cc(=O)oc2c1
6. CC(C)CCCC(C)C1CC[C@@H]2[C@@H]3CC[C@@H]4CC(CCC=C(c5cc(Cl)c(O)c(C(=O)O)c5)c5cc(Cl)c(O)c(C(=O)O)c5)CC[C@]4(C)[C@@H]3CC[C@]12C (stereo partly drawn)

> 25 µg/mL
> 25 µg/mL
> 50 µM
> 25 µg/mL
> 50 µM
> 50 µM

The following molecules each have a reported value; give each one's CC50 at 6 days.
1. CC(C)(C)c1ccc(C(=O)N2CCC(C(=O)Nc3ccc4c(c3)OCO4)CC2)cc1
2. Cc1sc(NC(=O)CCc2ccccc2)c(C(=O)O)c1C
3. O=C(Nc1ccc2c(c1)ncn2C1CCCCC1)c1cccs1
4. NCc1cn2ccccc2n1
5. O=C(c1ccc(O)cc1O)c1ccc(O)cc1O
6. Cc1cc(C)n(-c2ccc(C(=O)Nc3cc(Cl)ccc3C)cc2)n1

["> 25 µg/mL", "> 25 µg/mL", "> 25 µg/mL", "> 50 µM", "> 25 µg/mL", "> 50 µM"]

The following molecules each have a reported value; give each one's CC50 at 6 days.
1. Cc1cc(C)n2nc(C(=O)Nc3cnn(C45CC6CC(CC(C6)C4)C5)c3)cc2n1
2. COc1ccc(-c2nc(CSc3nnc(C4CC4)n3C3CC3)cs2)cc1
3. CC(Oc1ccc(Cl)cc1Cl)C(=O)Nc1ccc(F)c(F)c1 (stereo not drawn)
4. Cc1ccccc1C(=O)Nc1sc2c(c1C(=O)N1CCN(Cc3ccccc3)CC1)CCCCC2
5. CSc1ccc(Cl)c(C(=O)Nc2ccc(N3CCCCC3)cc2)c1
6. COC(=O)c1c(-c2ccccc2)csc1NC(=O)c1c(-c2ccccc2)noc1C

1. > 25 µg/mL
2. > 50 µM
3. > 25 µg/mL
4. > 25 µg/mL
5. > 50 µM
6. > 25 µg/mL

###

Assay Summary: cytotoxicity assay (percent viability of HEp-2 cells, Cell Titer-Glo)
Condition: human
Measurement Type: CC50 at 6 days

Reported CC50 at 6 days for "CN(C)C(=O)Oc1ccc2ccccc2c1Cl" was > 25 µg/mL

###

Provide the recorded CC50 for the entries that follow.
Assay Summary: in vitro
Condition: human

In the examples that follow, each entry is paired with its recorded CC50.
* COc1ccccc1/C=N/NC(=N)N[N+](=O)[O-] | > 50 µM
* O=Cc1cn(CC(=O)N2CCc3ccccc3C2)c2ccc(Br)cc12 | > 25 µg/mL
* Nc1ccc2c(c1)Cc1ccccc1-2 | > 50 µM
* O=c1c(F)cn(Cc2ccc([N+](=O)[O-])cc2)c(=O)n1Cc1ccc([N+](=O)[O-])cc1 | > 50 µM
* COc1c2ccoc2nc2c(OC)cccc12 | > 25 µg/mL
* N#CCCN1CCN(C(=S)c2ccc(-c3cccc(Cl)c3)o2)CC1 | > 25 µg/mL
* O=S(=O)(O)c1ccc2c(c1)C1=NC/2=N\c2c3cc(S(=O)(=O)O)ccc3c3[n]2[Cu][n]2/c(c4ccc(S(=O)(=O)O)cc4/c2=N/C2=NC(=N\3)/c3cc(S(=O)(=O)O)ccc32)=N\1 | > 50 µM

Reported CC50 for "CNC(=S)NNC(=O)COc1ccccc1C" was > 25 µg/mL

###

Provide the recorded CC50 at 6 days for the entries that follow.
Assay Summary: cytotoxicity assay (percent viability of HEp-2 cells, Cell Titer-Glo)
Condition: human, HEp-2 cells

- C=CC/N=c1\scc(-c2ccc(C)cc2)n1/N=C/c1ccccn1 [AB00718339]: > 50 µM
- O=C(Cc1ccc(Br)cc1)Nc1ccccc1C(=O)O [AB00369287]: > 25 µg/mL
- Oc1cccc2ccc(N3CCOCC3)nc12 [AB00275625]: > 25 µg/mL
- Cc1nc(N)sc1-c1nnc(Nc2ccccc2)s1 [AB00358926]: > 25 µg/mL
- c1coc(-c2nn3c(Cn4cnc5ccccc54)nnc3s2)c1 [AB00369924]: > 25 µg/mL
- CC1(C)O[C@@H]2[C@H](O1)[C@@H](CO)O[C@H]2n1ncc(=O)[nH]c1=O [AB00174524]: > 50 µM
- CCOC(=O)CCC(NC(=O)c1cnc(NCc2cnc3nc(N)nc(N)c3c2C)s1)C(=O)OCC (stereo not shown) [AB00375242]: > 50 µM
- O=C(C1CCN(S(=O)(=O)c2ccccc2)CC1)N1CCc2ccccc2C1 [AB00298862]: > 25 µg/mL

The following molecules each have a reported value; give each one's CC50 at 6 days.
1. N#Cc1c(Cl)nc(N)c(N)c1C(F)(F)F [AB00430151]
2. O=C(CCNC(=O)c1ccc(Br)cc1)NC1CCCc2ccccc21 (stereo not shown) [AB00739576]
3. C/C(N)=C(/C#N)C(=O)CSc1nc2sc3c(c2c(=O)n1-c1ccccc1C(F)(F)F)CCCCC3 [AB00728757]
4. O=c1c2c([nH]c3ccccc13)-c1ccccc1-n1c(nc3ccccc3c1=O)C2 [AB00700560]
5. CC(=O)N(CCCCN1C(=O)c2ccccc2C1=O)c1ccc(C)cc1 [AB00300194]
6. O=C(c1ccccc1C(=O)N1CCc2ccccc2C1)N1CCc2ccccc2C1 [AB00310729]
7. CCOC(=O)c1ccc(NC(=O)NCCc2ccccc2OC)cc1 [AB00348268]

> 50 µM
> 50 µM
> 50 µM
> 50 µM
> 25 µg/mL
> 25 µg/mL
> 25 µg/mL

The following molecules each have a reported value; give each one's CC50 at 6 days.
1. Cc1ccc2nc(-c3ccccc3)c(CN3CCCC3)c(O)c2c1 [AB00293683]
2. C/C(N)=C(/C#N)C(=O)CSc1nnc2c(Cl)cc(C(F)(F)F)cn12 [AB00724801]
3. O=c1cnn([C@@H]2O[C@H](CO)[C@@H](O)[C@H]2O)c(=O)[nH]1 [SRI-7958]
4. COc1ccc(CN2C(=O)CC(Cc3ccccc3)C2=O)cc1 (stereo not shown) [AB00307412]

1. > 25 µg/mL
2. > 50 µM
3. > 50 µM
4. > 25 µg/mL
